- measured.on: 85/88 kDa calcium-independent phospholipase A2 (Homo sapiens) (UniProt O60733)
- Sequence (O60733 whole entry): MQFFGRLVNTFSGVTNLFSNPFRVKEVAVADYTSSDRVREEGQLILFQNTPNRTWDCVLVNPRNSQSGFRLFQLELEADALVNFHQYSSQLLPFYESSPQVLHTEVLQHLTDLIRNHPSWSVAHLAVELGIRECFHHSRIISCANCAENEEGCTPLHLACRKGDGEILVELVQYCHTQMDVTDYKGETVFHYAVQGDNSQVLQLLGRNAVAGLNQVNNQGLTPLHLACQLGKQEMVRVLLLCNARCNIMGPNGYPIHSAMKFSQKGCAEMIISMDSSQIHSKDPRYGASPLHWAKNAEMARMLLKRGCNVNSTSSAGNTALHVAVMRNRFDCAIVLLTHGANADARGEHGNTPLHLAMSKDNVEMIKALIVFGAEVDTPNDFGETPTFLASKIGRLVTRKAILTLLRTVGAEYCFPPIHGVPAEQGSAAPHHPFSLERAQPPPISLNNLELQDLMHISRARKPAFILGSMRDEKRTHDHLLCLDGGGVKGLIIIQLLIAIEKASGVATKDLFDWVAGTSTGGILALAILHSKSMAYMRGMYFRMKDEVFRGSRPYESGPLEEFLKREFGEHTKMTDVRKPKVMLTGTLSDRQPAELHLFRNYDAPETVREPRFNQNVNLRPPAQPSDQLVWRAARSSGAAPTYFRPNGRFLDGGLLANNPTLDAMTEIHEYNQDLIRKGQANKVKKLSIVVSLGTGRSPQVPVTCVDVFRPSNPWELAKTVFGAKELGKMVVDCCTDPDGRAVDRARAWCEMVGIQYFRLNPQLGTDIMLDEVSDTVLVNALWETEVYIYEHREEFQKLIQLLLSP
- protocol.summary: Inhibition of human group 6A iPLA2 using PAPC/[14C]-labeled PAPC as substrate at 0.091 mole fraction after 30 mins by mixed micelle-based assay relative to control
parameter: inhibition (%)

[[record]]
sample_smiles = "CCCCCCOc1ccc(CCCCC(=O)C(=O)NCCCC(=O)OCC)cc1"
measured_on = "85/88 kDa calcium-independent phospholipase A2 (Homo sapiens) (UniProt O60733)"
parameter = "inhibition"
endpoint_unit = "%"
value_qualifier = "="
value = 95.1

[[record]]
sample_smiles = "CCCCCCOc1ccc(CCCCC(=O)C(=O)NCCCC(=O)O)cc1"
measured_on = "85/88 kDa calcium-independent phospholipase A2 (Homo sapiens) (UniProt O60733)"
parameter = "inhibition"
endpoint_unit = "%"
value_qualifier = "<"
value = 25

[[record]]
sample_smiles = "CCCCCCCCc1ccc(OCCCC(=O)C(=O)NCCCC(=O)OCC)cc1"
measured_on = "85/88 kDa calcium-independent phospholipase A2 (Homo sapiens) (UniProt O60733)"
parameter = "inhibition"
endpoint_unit = "%"
value_qualifier = "="
value = 94.7

[[record]]
sample_smiles = "Cc1ccc(S(=O)(=O)NCCCCCCCCCCC(=O)C(=O)NCCCC(=O)O)cc1"
measured_on = "85/88 kDa calcium-independent phospholipase A2 (Homo sapiens) (UniProt O60733)"
parameter = "inhibition"
endpoint_unit = "%"
value_qualifier = "<"
value = 25

[[record]]
sample_smiles = "CCOC(=O)CCCNC(=O)C(=O)CCCCCCCCCCCC(=O)O"
measured_on = "85/88 kDa calcium-independent phospholipase A2 (Homo sapiens) (UniProt O60733)"
parameter = "inhibition"
endpoint_unit = "%"
value_qualifier = "<"
value = 25

[[record]]
sample_smiles = "CCCCCCCCc1ccc(OCCCC(=O)C(=O)NCCCC(=O)O)cc1"
measured_on = "85/88 kDa calcium-independent phospholipase A2 (Homo sapiens) (UniProt O60733)"
parameter = "inhibition"
endpoint_unit = "%"
value_qualifier = "<"
value = 25

[[record]]
sample_smiles = "CCCCCCOc1ccc(OCCCC(=O)C(=O)NCCCC(=O)O)cc1"
measured_on = "85/88 kDa calcium-independent phospholipase A2 (Homo sapiens) (UniProt O60733)"
parameter = "inhibition"
endpoint_unit = "%"
value_qualifier = "="
value = 81.1

[[record]]
sample_smiles = "CCCCCCOc1ccc(OCCCC(=O)C(=O)NCCCCC(=O)O)cc1"
measured_on = "85/88 kDa calcium-independent phospholipase A2 (Homo sapiens) (UniProt O60733)"
parameter = "inhibition"
endpoint_unit = "%"
value_qualifier = "="
value = 82.5

[[record]]
sample_smiles = "CCOC(=O)CCCNC(=O)C(=O)CCCCCCCCCCNS(=O)(=O)c1ccc(C)cc1"
measured_on = "85/88 kDa calcium-independent phospholipase A2 (Homo sapiens) (UniProt O60733)"
parameter = "inhibition"
endpoint_unit = "%"
value_qualifier = "<"
value = 25

[[record]]
sample_smiles = "CCCCCCCCCCCCCCC(=O)C(=O)NCCCC(=O)O"
measured_on = "85/88 kDa calcium-independent phospholipase A2 (Homo sapiens) (UniProt O60733)"
parameter = "inhibition"
endpoint_unit = "%"
value_qualifier = "<"
value = 25


---

- measured.on: Cytosolic phospholipase A2 (Homo sapiens) (UniProt P47712)
- Sequence (P47712 whole entry): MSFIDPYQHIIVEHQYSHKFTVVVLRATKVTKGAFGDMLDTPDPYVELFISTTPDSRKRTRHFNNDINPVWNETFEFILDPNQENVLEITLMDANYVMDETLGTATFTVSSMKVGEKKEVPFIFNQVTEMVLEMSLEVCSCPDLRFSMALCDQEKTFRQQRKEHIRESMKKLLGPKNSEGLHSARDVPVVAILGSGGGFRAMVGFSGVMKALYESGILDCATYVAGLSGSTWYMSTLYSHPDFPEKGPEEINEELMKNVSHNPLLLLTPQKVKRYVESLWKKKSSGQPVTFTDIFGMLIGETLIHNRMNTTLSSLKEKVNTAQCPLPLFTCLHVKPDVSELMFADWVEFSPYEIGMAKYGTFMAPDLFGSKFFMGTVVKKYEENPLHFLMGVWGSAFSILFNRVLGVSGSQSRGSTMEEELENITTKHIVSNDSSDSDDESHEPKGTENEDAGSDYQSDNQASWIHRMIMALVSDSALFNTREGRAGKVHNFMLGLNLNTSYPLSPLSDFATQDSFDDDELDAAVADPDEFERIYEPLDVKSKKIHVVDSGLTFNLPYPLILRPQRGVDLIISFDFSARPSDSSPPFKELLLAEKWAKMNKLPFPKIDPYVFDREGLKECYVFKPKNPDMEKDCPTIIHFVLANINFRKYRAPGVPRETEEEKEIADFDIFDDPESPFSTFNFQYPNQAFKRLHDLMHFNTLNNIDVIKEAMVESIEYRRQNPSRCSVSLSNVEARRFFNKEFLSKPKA
- protocol.summary: Inhibition of human group 4A cPLA2 using PAPC/[14C]-labeled PAPC as substrate at 0.091 mole fraction after 30 mins by mixed micelle-based assay relative to control
We begin with a simple list: items and their reported inhibition.
parameter: inhibition

[[record]]
sample_smiles = "CCOC(=O)CCCNC(=O)C(=O)CCCCCCCCCCNS(=O)(=O)c1ccc(C)cc1"
measured_on = "Cytosolic phospholipase A2 (Homo sapiens) (UniProt P47712)"
value = "59.3%"

[[record]]
sample_smiles = "CCCCCCOc1ccc(CCCCC(=O)C(=O)NCCCC(=O)O)cc1"
measured_on = "Cytosolic phospholipase A2 (Homo sapiens) (UniProt P47712)"
value = "> 85%"

[[record]]
sample_smiles = "CCCCCCOc1ccc(OCCCC(=O)C(=O)NCCCC(=O)O)cc1"
measured_on = "Cytosolic phospholipase A2 (Homo sapiens) (UniProt P47712)"
value = "63.6%"

[[record]]
sample_smiles = "CCCCCCOc1ccc(CCCCC(=O)C(=O)NCCCC(=O)OCC)cc1"
measured_on = "Cytosolic phospholipase A2 (Homo sapiens) (UniProt P47712)"
value = "> 85%"

[[record]]
sample_smiles = "CCCCCCOc1ccc(OCCCC(=O)C(=O)NCCCCC(=O)O)cc1"
measured_on = "Cytosolic phospholipase A2 (Homo sapiens) (UniProt P47712)"
value = "88%"

[[record]]
sample_smiles = "CCOC(=O)CCCNC(=O)C(=O)CCCCCCCCCCCC(=O)O"
measured_on = "Cytosolic phospholipase A2 (Homo sapiens) (UniProt P47712)"
value = "< 25%"

[[record]]
sample_smiles = "Cc1ccc(S(=O)(=O)NCCCCCCCCCCC(=O)C(=O)NCCCC(=O)O)cc1"
measured_on = "Cytosolic phospholipase A2 (Homo sapiens) (UniProt P47712)"
value = "< 25%"

[[record]]
sample_smiles = "CCCCCCCCc1ccc(OCCCC(=O)C(=O)NCCCC(=O)OCC)cc1"
measured_on = "Cytosolic phospholipase A2 (Homo sapiens) (UniProt P47712)"
value = "49.3%"

[[record]]
sample_smiles = "CCCCCCCCc1ccc(OCCCC(=O)C(=O)NCCCC(=O)O)cc1"
measured_on = "Cytosolic phospholipase A2 (Homo sapiens) (UniProt P47712)"
value = "> 85%"


---

- measured.on: Cytosolic phospholipase A2 (Homo sapiens) (UniProt P47712)
- protocol.summary: Inhibition of human group 4A cPLA2 using PAPC/[14C]-labeled PAPC as substrate after 30 mins by mixed micelle-based assay
Quick list: XI50 (mole fraction) per entry.
parameter: XI50 (mole fraction)

[[record]]
sample_smiles = "CCCCCCOc1ccc(CCCCC(=O)C(=O)NCCCC(=O)OCC)cc1"
value = 0.02

[[record]]
sample_smiles = "CCCCCCOc1ccc(OCCCC(=O)C(=O)NCCCCC(=O)O)cc1"
value = 0.013

[[record]]
sample_smiles = "CCCCCCCCc1ccc(OCCCC(=O)C(=O)NCCCC(=O)O)cc1"
value = 0.023

[[record]]
sample_smiles = "CCCCCCOc1ccc(CCCCC(=O)C(=O)NCCCC(=O)O)cc1"
value = 0.016


---

- Organism: Homo sapiens
- protocol.summary: Inhibition of human group 5 sPLA2 using PAPC/[14C]-labeled PAPC as substrate at 0.091 mole fraction after 30 mins by mixed micelle-based assay relative to control
parameter: inhibition

[[record]]
sample_smiles = "CCOC(=O)CCCNC(=O)C(=O)CCCCCCCCCCCC(=O)O"
parameter = "inhibition"
value = "< 25%"

[[record]]
sample_smiles = "CCCCCCOc1ccc(OCCCC(=O)C(=O)NCCCC(=O)O)cc1"
parameter = "inhibition"
value = "< 25%"

[[record]]
sample_smiles = "CCCCCCOc1ccc(CCCCC(=O)C(=O)NCCCC(=O)O)cc1"
parameter = "inhibition"
value = "< 25%"

[[record]]
sample_smiles = "CCCCCCOc1ccc(OCCCC(=O)C(=O)NCCCCC(=O)O)cc1"
parameter = "inhibition"
value = "< 25%"

[[record]]
sample_smiles = "CCCCCCCCc1ccc(OCCCC(=O)C(=O)NCCCC(=O)OCC)cc1"
parameter = "inhibition"
value = "40.6%"

[[record]]
sample_smiles = "CCOC(=O)CCCNC(=O)C(=O)CCCCCCCCCCNS(=O)(=O)c1ccc(C)cc1"
parameter = "inhibition"
value = "< 25%"

[[record]]
sample_smiles = "CCCCCCOc1ccc(CCCCC(=O)C(=O)NCCCC(=O)OCC)cc1"
parameter = "inhibition"
value = "33.8%"

[[record]]
sample_smiles = "Cc1ccc(S(=O)(=O)NCCCCCCCCCCC(=O)C(=O)NCCCC(=O)O)cc1"
parameter = "inhibition"
value = "< 25%"

[[record]]
sample_smiles = "CCCCCCCCc1ccc(OCCCC(=O)C(=O)NCCCC(=O)O)cc1"
parameter = "inhibition"
value = "< 25%"

